Where these numbers come from: ChEMBL document CHEMBL5303304

Test system: Fibroblast
Assay: Incucyte cell viability with human fibroblast; also: unitless GR value; below 1 slowed growth and below 0 cell loss
Assay type: toxicity, cell-based
Conditions: 24 h, 10 µM, compound concentration 10 uM, replicate number 2
Met means recorded Growth Rate is 0.7 or above; Not met means it is below 0.7.

input: # check: Growth Rate of Cc1cc(OCCC(C)(C)O)cc(C)c1-c1ccc(F)c2c1CC[C@H]2Oc1ccc2c(c1)OC[C@H]2CC(=O)O is greater than or equal to 0.7
output: Not met

input: # check: Growth Rate of CC(C)(C)c1cc(NC(=O)c2csc(Nc3ccc(Cl)cc3)n2)no1 is greater than or equal to 0.7
output: Met

input: # check: Growth Rate of CC(C)(C)S(=O)(=O)c1ccc2nccc(Nc3n[nH]c4ccc(F)cc34)c2c1 is greater than or equal to 0.7
output: Not met

input: # check: Growth Rate of Cc1nc(Nc2cnn(C3CCNCC3)c2)nc2c1N(C)C(=O)c1cc3ccccc3cc1N2C is greater than or equal to 0.7
output: Not met

input: # check: Growth Rate of COc1cc(-c2cn(C)c(=O)c3cnccc23)cc(OC)c1CN(C)C is greater than or equal to 0.7
output: Met

input: # check: Growth Rate of COc1ccc(CSc2nnc(-c3ccc4ncsc4c3)o2)cc1C(F)(F)F is greater than or equal to 0.7
output: Met

input: # check: Growth Rate of CN1CCN(c2ccc(C(=O)Nc3n[nH]c4ccc(Cc5cc(F)cc(F)c5)cc34)c(NC3CCOCC3)c2)CC1 is greater than or equal to 0.7
output: Not met

---

System: HEK-293T
Experiment: Incucyte cell viability with HEK293T; also: unitless GR value; below 1 slowed growth and below 0 cell loss
Assay type: toxicity, cell-based
Conditions: human, 6 h, 10 µM, compound concentration 10 uM, replicate number 2
OBSERVABLE: Growth Rate
Give the figure only, with no unit attached.

input: # value lookup — system HEK-293T, readout Growth Rate, item CN1CCN(C(=O)Cc2ccc(N/C(=C3\C(=O)Nc4cc(Cl)ccc43)c3ccccc3)cc2)CC1
output: 0.83

input: # value lookup — system HEK-293T, readout Growth Rate, item CCCCc1oc2ccccc2c1C(=O)c1cc(I)c(OCCN(CC)CC)c(I)c1.Cl [AMIODARONE HYDROCHLORIDE]
output: -0.04

input: # value lookup — system HEK-293T, readout Growth Rate, item Cc1n[nH]c2ncc(C(=O)N3CCC[C@H]3c3ccc(Cl)cc3)cc12
output: 0.58

input: # value lookup — system HEK-293T, readout Growth Rate, item O=C1Nc2nc(-c3c(O)cccc3OCC3CC3)cc([C@@H]3CCCNC3)c2CO1
output: 0.83

input: # value lookup — system HEK-293T, readout Growth Rate, item CC(C)CC(=O)Nc1cncc(-c2ccc3[nH]nc(-c4nc5c(-c6cccc(F)c6)cncc5[nH]4)c3c2)c1 [LORECIVIVINT]
output: -0.98

input: # value lookup — system HEK-293T, readout Growth Rate, item Cc1cccc(F)c1C(=O)Nc1cnc(-c2cc3c(cc2Cl)OC(F)(F)O3)cn1 [ZEGOCRACTIN]
output: -0.48

input: # value lookup — system HEK-293T, readout Growth Rate, item CC[C@@H](Nc1c(C#N)c(-c2ccc(-c3cccc(C)c3F)cc2)nc2cnccc12)C(=O)O [BAY-091]
output: 0.63

input: # value lookup — system HEK-293T, readout Growth Rate, item O=C1COc2cc(C(=O)N(Cc3ccc(C(=O)Nc4ccncn4)cc3)C3CC3)ccc2N1
output: 0.01

---

System: HEK-293T
Assay: Incucyte cell viability with HEK293T; also: unitless GR value; below 1 slowed growth and below 0 cell loss
Type: toxicity, cell-based
Settings: human, 6 h, 10 µM, compound concentration 10 uM, replicate number 1
OBSERVABLE: Growth Rate
Give the figure only, with no unit attached.

input: Dear colleague, I am looking for the recorded Growth Rate of the following compound: C=CC(=O)Nc1ccc2[nH]c(=O)n(C3CCN(Cc4ccc(-c5ccc6c(c5)NC(=O)CO6)cc4)CC3)c2c1
output: 0.24

input: Dear colleague, I am looking for the recorded Growth Rate of the following compound: Cn1cc(-c2ccc(N(C(=O)NCc3ccccc3)[C@H]3CC[C@H](Nc4ccc(C#N)cn4)CC3)cc2)ccc1=O
output: -0.2

input: Dear colleague, I am looking for the recorded Growth Rate of the following compound: C=CC(=O)Nc1cccc(C)c1Nc1ncc2cc(-c3c(Cl)c(OC)cc(OC)c3Cl)ccc2n1
output: -0.39

input: Dear colleague, I am looking for the recorded Growth Rate of the following compound: CNc1nc(NCc2ncccn2)c2c(-c3ccc4ncccc4c3)c[nH]c2n1
output: 0.58

input: Dear colleague, I am looking for the recorded Growth Rate of the following compound: CCN1CCN(Cc2ccc(Nc3ncc(F)c(-c4cc(F)c5nc(C)n(C(C)C)c5c4)n3)nc2)CC1
output: 0.74

input: Dear colleague, I am looking for the recorded Growth Rate of the following compound: CN(C)CCCNc1ccnc(Nc2cccc(Cl)c2)n1
output: -0.38

input: Dear colleague, I am looking for the recorded Growth Rate of the following compound: CCNCCNC(=O)c1c(C)[nH]c(/C=C2\C(=O)Nc3ccc(F)cc32)c1C
output: -0.62

input: Dear colleague, I am looking for the recorded Growth Rate of the following compound: Cc1cc(OCCC(C)(C)O)cc(C)c1-c1ccc(F)c2c1CC[C@H]2Oc1ccc2c(c1)OC[C@H]2CC(=O)O
output: 0.79

input: Dear colleague, I am looking for the recorded Growth Rate of the following compound: O=C(Nc1cc(C(F)(F)F)cc(C(F)(F)F)c1)c1cc(Cl)ccc1O
output: 0.18

input: Dear colleague, I am looking for the recorded Growth Rate of the following compound: O=C(CNC(=O)c1ccc(-c2ccccc2)cc1)NC1CCCc2ccccc21 (stereo not given)
output: 0.23

---

Tested on: HEK-293T
Assay: Incucyte cell viability with HEK293T; also: unitless GR value; below 1 slowed growth and below 0 cell loss
Format: toxicity, cell-based
Details: human, 24 h, 10 µM, compound concentration 10 uM, replicate number 1
Answer each item with its documented Growth Rate.
Give the figure only, with no unit attached.

input: Dear colleague, I am looking for the recorded Growth Rate of the following compound: O=S(=O)(Nc1ccc(C(O)(C(F)(F)F)C(F)(F)F)cc1)c1cccs1
output: 0.87

input: Dear colleague, I am looking for the recorded Growth Rate of the following compound: CN1CCN(c2ccc(/C=C(\C#N)c3ccccc3Br)cc2)CC1.Cl.Cl
output: 0.46

input: Dear colleague, I am looking for the recorded Growth Rate of the following compound: CC(C)NC(=O)[C@H]1CCC[C@H]1Nc1nc(Nc2ccc(CN(C)C)cc2)ncc1Br.Cl
output: 0.2

input: Dear colleague, I am looking for the recorded Growth Rate of the following compound: O=c1[nH]c(CS[C@H]2CC[C@H](O)CC2)nc2cc(OCC3CC3)cc(F)c12
output: 0.87

input: Dear colleague, I am looking for the recorded Growth Rate of the following compound: CCOC(=O)N1CCC(c2cc(O)n3nc(C)c(-c4ccc(F)cc4)c3n2)CC1
output: 0.88

input: Dear colleague, I am looking for the recorded Growth Rate of the following compound: CCCOc1cnc(CN/C=C2\C(=O)NC(=O)c3ccc(I)cc32)cc1O
output: -0.58

input: Dear colleague, I am looking for the recorded Growth Rate of the following compound: O=C(CCCCCCc1ccccc1)c1ncc(-c2ccccn2)o1
output: 0.8

input: Dear colleague, I am looking for the recorded Growth Rate of the following compound: Cc1ccc2c(N)c(C(=O)NC3CCc4cc(N5CC6CCC(C5)N6)ccc4C3)sc2n1.O=CO (stereo not given)
output: -0.32

input: Dear colleague, I am looking for the recorded Growth Rate of the following compound: O=C1CCCc2[nH]c(-c3ccnc(NCC4CC4)c3)c(Nc3ccccc3)c21
output: 0.88

input: Dear colleague, I am looking for the recorded Growth Rate of the following compound: CCC(=O)Nc1cc(Nc2cc(NC3CC3)n3ncc(C#N)c3n2)ccc1C
output: 0.81

---

System: Fibroblast
Assay: Incucyte cell viability with human fibroblast; also: unitless GR value; below 1 slowed growth and below 0 cell loss
Assay type: toxicity, cell-based
Details: 18 h, 10 µM, compound concentration 10 uM, replicate number 2
OBSERVABLE: Growth Rate

input: Dear colleague, I am looking for the recorded Growth Rate of the following compound: Cc1ccc(-c2c(C(=O)CF)n(CCCO)c3ncnc(N)c23)cc1
output: 0.3

input: Dear colleague, I am looking for the recorded Growth Rate of the following compound: CCOC(=O)C1=C[C@]2(CC)CCCN3CCc4c(n1c1ccccc41)[C@@H]32
output: 0.85

input: Dear colleague, I am looking for the recorded Growth Rate of the following compound: COc1c(-c2cn(C3CCC(=O)NC3=O)nn2)csc1C(=O)N1CCCC1 (centres undefined)
output: 0.92

input: Dear colleague, I am looking for the recorded Growth Rate of the following compound: CC/C(=C(\c1ccccc1)c1ccc(OCCN(C)C)cc1)c1ccccc1.O=C(O)CC(O)(CC(=O)O)C(=O)O [TAMOXIFEN CITRATE]
output: -0.19

input: Dear colleague, I am looking for the recorded Growth Rate of the following compound: Cn1cnc(Cn2ccc3ccc(CNCc4[nH]c5ccccc5c4[C@H]4NC(=O)c5ccc(O)cc54)cc32)c1
output: 0.8

input: Dear colleague, I am looking for the recorded Growth Rate of the following compound: CN1C2CCCC1CC(Nc1ccccc1Br)C2 (centres undefined)
output: 0.95

input: Dear colleague, I am looking for the recorded Growth Rate of the following compound: CC(C)(C)c1cc(NC(=O)c2csc(Nc3ccc(Cl)cc3)n2)no1
output: 0.74

input: Dear colleague, I am looking for the recorded Growth Rate of the following compound: Cc1c(CN2CCC3(CC2)CN(c2ncnc4sc(CC(F)(F)F)cc24)C3)ccc2c1cc(C#N)n2CC(N)=O
output: -0.22

input: Dear colleague, I am looking for the recorded Growth Rate of the following compound: Cc1[nH]nc2ccc(-c3cncc(OCC(N)Cc4c[nH]c5ccccc45)c3)cc12 (centres undefined)
output: 0.88
